Tested on: 885724-159-R-J1-PDC complex spheroid viability;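 note: spheroids exposed to compounds for 7 days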
Assay Overview: Anticancer human tumor 885724-159-R-J1-PDC patient-derived pancreatic adenocarcinoma cell line growth inhibition [POLQ]
Measurement Context: second compound 1 µM; first compound 3.16 µM; hits give low values
Protocol: Multicellular complex tumor spheroid response to Polymerase (POL) inhibitors (novobiocin, ART-558, RP6685) in combination with a variety of drugs and investigational agents in selected tumor cell lines The POL inhibitors (novobiocin, ART-558, and RP6685) were evaluated both individually and in combination with standard of care and investigational anticancer small molecules within a complex spheroid model of solid tumors. . […]
What viability, T/C was measured for each of the following?
Give your result in % as a bare value.

Looking up CC1COCCN1c1cc(-c2ccnn2C)c2ccnc(-c3ccn[nH]3)c2n1 (stereo not drawn) + COC1C(OC(N)=O)C(O)C(Oc2ccc3c(O)c(NC(=O)c4ccc(O)c(CC=C(C)C)c4)c(=O)oc3c2C)OC1(C)C , I see its viability, T/C listed as 41

Looking up COc1ccc([C@@H](O)c2cc(-c3ncnc4cc(N5CCOCC5)ccc34)c(F)cc2Cl)nn1 + Nc1ccc(C#CCN(C(=O)Cc2ncc(C(F)(F)F)cc2C(F)(F)F)c2ccc(F)cc2)nn1 , I see its viability, T/C listed as 57.5

Looking up O=c1[nH]cc(F)c(=O)[nH]1 + COC1C(OC(N)=O)C(O)C(Oc2ccc3c(O)c(NC(=O)c4ccc(O)c(CC=C(C)C)c4)c(=O)oc3c2C)OC1(C)C , I see its viability, T/C listed as 89.6
